- Test system: Hep‐3B human cell line
- PROCEDURE SUMMARY: Cellular HIF-1α stabilization by immunoblotting
- Format: cell-based
- APPLIED CONDITIONS: Hep3B, 100 μM, 3 hours, immunoblot

{"columns": ["MOLECULE", "cellular HIF‐1α stabilization"],
 "data": [
  ["Cc1cccnc1CN1CCC2(CC1)C(=O)N(c1ccc(-c3ccccc3)cc1)C(=O)N2c1ncccn1 [compound 18, reference compound]", "strongest activity"],
  ["O=C(Nc1ccc(-c2ccccc2)cc1)c1cnc(-n2cccn2)nc1O [compound 15]", "strongest activity"],
  ["O=C(NCc1ccc(Oc2ccccc2)cc1)c1cnc(-n2cccn2)nc1O [compound 8]", "strongest activity"]
]}

###

- SYSTEM UNDER TEST: OGFOD1 (Homo sapiens, UniProt Q8N543)
- Construct: made in house
- Sequence (Q8N543 whole entry): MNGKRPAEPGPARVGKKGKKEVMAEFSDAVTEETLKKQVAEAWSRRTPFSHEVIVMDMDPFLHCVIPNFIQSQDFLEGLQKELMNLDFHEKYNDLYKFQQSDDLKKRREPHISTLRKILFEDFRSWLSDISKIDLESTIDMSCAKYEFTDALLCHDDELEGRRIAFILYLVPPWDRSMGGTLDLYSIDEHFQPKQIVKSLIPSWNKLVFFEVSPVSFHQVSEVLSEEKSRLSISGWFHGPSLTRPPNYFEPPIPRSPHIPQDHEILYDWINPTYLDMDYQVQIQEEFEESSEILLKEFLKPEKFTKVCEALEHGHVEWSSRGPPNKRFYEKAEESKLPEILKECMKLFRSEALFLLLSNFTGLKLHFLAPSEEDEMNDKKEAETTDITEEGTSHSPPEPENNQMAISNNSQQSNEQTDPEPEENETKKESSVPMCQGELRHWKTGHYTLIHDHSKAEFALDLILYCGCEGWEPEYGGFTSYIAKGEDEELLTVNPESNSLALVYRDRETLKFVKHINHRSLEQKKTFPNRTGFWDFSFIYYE
- PROCEDURE SUMMARY: MALDI-TOF MS OGFOD1 hydroxylation assay
- Assay type: biochemical
- APPLIED CONDITIONS: at 10 μM inhibitor
Outcome: Met for OGFOD1 activity relative to control of at least 80%; Not met for anything lower.

{"columns": ["COMPOUND", "LABEL CLASS"],
 "data": [
  ["O=C(N[C@@H](CO)c1ccccc1)c1cnc(-n2cccn2)nc1O [compound 16]", "Not met"]
]}

Could you tell me if the measured OGFOD1 activity relative to control of Cc1nc(C(=O)NCC(=O)O)c(O)c2ccc(Oc3ccccc3)cc12 [compound 1, Roxadustat, reference compound] reaches 80% or more?
Met

Record O=C(NCc1cccc(C(F)(F)F)c1)c1cnc(-n2cccn2)nc1O [compound 13] ; criterion: OGFOD1 activity relative to control no lower than 80%. Met?
Not met

Item O=C(NCc1ccc(Oc2ccccc2)cc1)c1cnc(-n2cccn2)nc1O [compound 8] with OGFOD1 activity relative to control of 80% or above?
Met

Can O=C(N[C@H](CO)c1ccccc1)c1cnc(-n2cccn2)nc1O [compound 17] be said to have OGFOD1 activity relative to control at or above 80%?
Not met

###

- SYSTEM UNDER TEST: UniProtKB Q84406
- Sequence (Q84406 entry or part of it): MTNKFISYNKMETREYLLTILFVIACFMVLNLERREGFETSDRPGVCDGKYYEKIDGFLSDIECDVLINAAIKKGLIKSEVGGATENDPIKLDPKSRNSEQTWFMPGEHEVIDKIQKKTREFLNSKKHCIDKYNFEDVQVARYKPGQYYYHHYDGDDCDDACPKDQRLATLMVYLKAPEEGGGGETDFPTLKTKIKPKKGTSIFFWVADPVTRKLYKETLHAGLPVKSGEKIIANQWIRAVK
MEASURED METRIC: IC50 (nM)
Give the value, in units of nM, as a plain number.

{"columns": ["COMPOUND", "UNIT DESCRIPTOR", "IC50"],
 "data": [
  ["O=C(Nc1ccc(-c2ccccc2)cc1)c1cnc(-n2cccn2)nc1O [compound 15]", "nM", 28200],
  ["O=C(N[C@@H](CO)c1ccccc1)c1cnc(-n2cccn2)nc1O [compound 16]", "nM", 1100]
]}

Now examine the next entry.
Given the compound O=C(NCc1ccc(Oc2ccccc2)cc1)c1cnc(-n2cccn2)nc1O [compound 8] , what is its reported IC50?
2000

###

- SYSTEM UNDER TEST: PHD2_181‐426 (Homo sapiens)
- Sequence (Q9GZT9 181-426): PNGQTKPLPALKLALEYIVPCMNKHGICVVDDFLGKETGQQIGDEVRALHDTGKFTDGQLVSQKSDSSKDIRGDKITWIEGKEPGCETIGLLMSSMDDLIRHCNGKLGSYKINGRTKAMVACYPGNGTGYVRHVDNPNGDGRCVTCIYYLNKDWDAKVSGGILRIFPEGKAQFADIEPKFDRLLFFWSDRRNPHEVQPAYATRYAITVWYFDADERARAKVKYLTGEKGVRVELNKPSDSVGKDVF
- PROCEDURE SUMMARY: biochemical
As shown below, each of these compounds has a reported IC50 value.

Some entries whose results are on file:
{"columns": ["COMPOUND", "SYSTEM UNDER TEST", "IC50"],
 "data": [
  ["O=C(NCc1ccc2c(c1)OCO2)c1cnc(-n2cccn2)nc1O [compound 14]", "PHD2_181‐426 (Homo sapiens)", "0.261 µM"],
  ["CCOC(=O)c1cnc(-n2cccn2)nc1O [compound 6]", "PHD2_181‐426 (Homo sapiens)", "> 25 µM"]
]}

Consider the compound shown here: O=C(NCC1CCCCC1)c1cnc(-n2cccn2)nc1O [compound 12] What is its recorded IC50?
> 25 µM

###

// reported IC50 per item
- SYSTEM UNDER TEST: FIH (Homo sapiens, UniProt Q9NWT6)
- Sequence (Q9NWT6 whole entry): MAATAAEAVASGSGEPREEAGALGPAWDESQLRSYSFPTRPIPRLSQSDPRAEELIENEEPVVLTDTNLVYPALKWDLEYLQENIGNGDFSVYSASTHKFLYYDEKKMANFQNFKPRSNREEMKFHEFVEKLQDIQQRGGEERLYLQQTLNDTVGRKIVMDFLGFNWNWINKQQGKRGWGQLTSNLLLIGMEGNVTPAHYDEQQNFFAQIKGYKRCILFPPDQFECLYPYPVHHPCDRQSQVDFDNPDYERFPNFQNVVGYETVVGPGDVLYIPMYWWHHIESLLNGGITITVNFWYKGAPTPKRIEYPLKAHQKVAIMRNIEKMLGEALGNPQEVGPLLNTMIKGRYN
- PROCEDURE SUMMARY: biochemical

Example compounds with recorded IC50:
{"columns": ["COMPOUND", "IC50"],
 "data": [
  ["O=C(NCC1CCCCC1)c1cnc(-n2cccn2)nc1O [compound 12]", "> 25 µM"],
  ["CCOC(=O)c1cnc(-n2cccn2)nc1O [compound 6]", "> 25 µM"],
  ["O=C(NCc1cccc(C(F)(F)F)c1)c1cnc(-n2cccn2)nc1O [compound 13]", "> 25 µM"]
]}

Here's the next entry for you.
Any idea what IC50 was measured for Cc1cccnc1CN1CCC2(CC1)C(=O)N(c1ccc(-c3ccccc3)cc1)C(=O)N2c1ncccn1 [compound 18, reference compound] ?
> 25 µM

###

- SYSTEM UNDER TEST: KDM4A (Homo sapiens)
- Sequence (O75164 1-359 limits assumed): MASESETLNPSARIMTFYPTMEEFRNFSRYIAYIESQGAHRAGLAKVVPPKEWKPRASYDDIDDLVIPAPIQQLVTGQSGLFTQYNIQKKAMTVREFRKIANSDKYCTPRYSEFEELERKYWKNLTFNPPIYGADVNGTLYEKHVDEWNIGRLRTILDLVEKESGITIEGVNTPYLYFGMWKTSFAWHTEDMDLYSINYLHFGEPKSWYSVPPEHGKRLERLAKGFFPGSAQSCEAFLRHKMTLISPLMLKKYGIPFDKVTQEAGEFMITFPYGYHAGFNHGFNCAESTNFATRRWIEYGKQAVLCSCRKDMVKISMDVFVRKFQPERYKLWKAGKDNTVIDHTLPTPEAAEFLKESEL
- PROCEDURE SUMMARY: biochemical
pIC50: −log10 of the molar value.
MEASURED METRIC: pIC50

{"columns": ["STRUCTURE NOTATION", "SYSTEM UNDER TEST", "pIC50"],
 "data": [
  ["O=C(NCc1ccccc1)c1cnc(-n2cccn2)nc1O", "KDM4A (Homo sapiens)", "< 4.60"],
  ["O=C(NCC1CCCCC1)c1cnc(-n2cccn2)nc1O", "KDM4A (Homo sapiens)", "< 4.60"],
  ["O=C(N[C@H](CO)c1ccccc1)c1cnc(-n2cccn2)nc1O", "KDM4A (Homo sapiens)", 4.68]
]}

GET /values?readout=pIC50&item= CCOC(=O)c1cnc(-n2cccn2)nc1O
< 4.60

May I ask what pIC50 has been recorded for O=C(NCc1ccccn1)c1cnc(-n2cccn2)nc1O ?
4.77

Given the entry O=C(N[C@@H](CO)c1ccccc1)c1cnc(-n2cccn2)nc1O , report its measured pIC50.
< 4.60

Look up pIC50 for this molecule: O=C(NCc1ccc(Oc2ccccc2)cc1)c1cnc(-n2cccn2)nc1O
< 4.60

Consider the molecule O=C(NCc1ccc(-c2ccccc2)cc1)c1cnc(-n2cccn2)nc1O and give its measured pIC50.
4.70

Query: pIC50; subject: O=C(NCc1cccc(C(F)(F)F)c1)c1cnc(-n2cccn2)nc1O
< 4.60

Fill blank: measured pIC50 of the molecule O=C(Nc1ccc(-c2ccccc2)cc1)c1cnc(-n2cccn2)nc1O is ____.
< 4.60

// returns reported pIC50 for input O=C(NCc1ccc2c(c1)OCO2)c1cnc(-n2cccn2)nc1O
4.64
